B1: TPR 5TU (parent)
chain: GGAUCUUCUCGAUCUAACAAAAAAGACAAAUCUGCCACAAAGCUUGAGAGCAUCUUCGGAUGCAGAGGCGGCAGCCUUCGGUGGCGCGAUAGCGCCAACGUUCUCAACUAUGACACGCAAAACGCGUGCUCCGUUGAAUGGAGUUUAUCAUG

variants of: B1; test: polymerase ribozyme fitness, log enrichment relative to wild type (log ratio); higher = more active; in vitro selection for triplet polymerase activity
Fewer inactive variants are shown than the library holds.
# polymerase ribozyme fitness (log ratio) >= -2 gives label 1, anything below gives label 0

{"VARIANT LABEL": "C57U G86U", "LABEL": "label 1"}
{"VARIANT LABEL": "G84U C95U", "LABEL": "label 1"}
{"VARIANT LABEL": "A41G G65A G143U", "LABEL": "label 0"}
{"VARIANT LABEL": "G46C C75U G88A A106U C116G", "LABEL": "label 0"}
{"VARIANT LABEL": "C27G A28C G48A U55A G68C C87U C108G", "LABEL": "label 0"}
{"VARIANT LABEL": "C14U A19C C76U C99U", "LABEL": "label 0"}
{"VARIANT LABEL": "C10A A21U G84A A97U A113G", "LABEL": "label 0"}
{"VARIANT LABEL": "A26C A30C U45A C54G G92A U104G A147G", "LABEL": "label 0"}
{"VARIANT LABEL": "A3C G46C A49G G92A U104G A113U G124A A142U", "LABEL": "label 0"}
{"VARIANT LABEL": "C32U G50A A52G G58A C87G C118G", "LABEL": "label 0"}
{"VARIANT LABEL": "A29C A41U G81C G86C C105G A106U", "LABEL": "label 0"}
{"VARIANT LABEL": "G25U A37C G83A U134C", "LABEL": "label 0"}
{"VARIANT LABEL": "G86U C93G A106G C132U U148A", "LABEL": "label 0"}
{"VARIANT LABEL": "A110G C129U U144C", "LABEL": "label 0"}
{"VARIANT LABEL": "A52C C96G", "LABEL": "label 1"}
{"VARIANT LABEL": "C75U G92C C132A", "LABEL": "label 0"}
{"VARIANT LABEL": "G84U A98G", "LABEL": "label 0"}
{"VARIANT LABEL": "A89G U146G C149G", "LABEL": "label 0"}
{"VARIANT LABEL": "A24U C57U A89U G92C U127C C131G", "LABEL": "label 0"}
{"VARIANT LABEL": "U6C A49G G59A G92A U111A", "LABEL": "label 0"}
{"VARIANT LABEL": "A40C G83C", "LABEL": "label 1"}
{"VARIANT LABEL": "G50U C95G", "LABEL": "label 1"}
